# subjectOfTest: Vascular endothelial growth factor receptor 2 (Homo sapiens) (UniProt P35968)
# Sequence (P35968 whole entry): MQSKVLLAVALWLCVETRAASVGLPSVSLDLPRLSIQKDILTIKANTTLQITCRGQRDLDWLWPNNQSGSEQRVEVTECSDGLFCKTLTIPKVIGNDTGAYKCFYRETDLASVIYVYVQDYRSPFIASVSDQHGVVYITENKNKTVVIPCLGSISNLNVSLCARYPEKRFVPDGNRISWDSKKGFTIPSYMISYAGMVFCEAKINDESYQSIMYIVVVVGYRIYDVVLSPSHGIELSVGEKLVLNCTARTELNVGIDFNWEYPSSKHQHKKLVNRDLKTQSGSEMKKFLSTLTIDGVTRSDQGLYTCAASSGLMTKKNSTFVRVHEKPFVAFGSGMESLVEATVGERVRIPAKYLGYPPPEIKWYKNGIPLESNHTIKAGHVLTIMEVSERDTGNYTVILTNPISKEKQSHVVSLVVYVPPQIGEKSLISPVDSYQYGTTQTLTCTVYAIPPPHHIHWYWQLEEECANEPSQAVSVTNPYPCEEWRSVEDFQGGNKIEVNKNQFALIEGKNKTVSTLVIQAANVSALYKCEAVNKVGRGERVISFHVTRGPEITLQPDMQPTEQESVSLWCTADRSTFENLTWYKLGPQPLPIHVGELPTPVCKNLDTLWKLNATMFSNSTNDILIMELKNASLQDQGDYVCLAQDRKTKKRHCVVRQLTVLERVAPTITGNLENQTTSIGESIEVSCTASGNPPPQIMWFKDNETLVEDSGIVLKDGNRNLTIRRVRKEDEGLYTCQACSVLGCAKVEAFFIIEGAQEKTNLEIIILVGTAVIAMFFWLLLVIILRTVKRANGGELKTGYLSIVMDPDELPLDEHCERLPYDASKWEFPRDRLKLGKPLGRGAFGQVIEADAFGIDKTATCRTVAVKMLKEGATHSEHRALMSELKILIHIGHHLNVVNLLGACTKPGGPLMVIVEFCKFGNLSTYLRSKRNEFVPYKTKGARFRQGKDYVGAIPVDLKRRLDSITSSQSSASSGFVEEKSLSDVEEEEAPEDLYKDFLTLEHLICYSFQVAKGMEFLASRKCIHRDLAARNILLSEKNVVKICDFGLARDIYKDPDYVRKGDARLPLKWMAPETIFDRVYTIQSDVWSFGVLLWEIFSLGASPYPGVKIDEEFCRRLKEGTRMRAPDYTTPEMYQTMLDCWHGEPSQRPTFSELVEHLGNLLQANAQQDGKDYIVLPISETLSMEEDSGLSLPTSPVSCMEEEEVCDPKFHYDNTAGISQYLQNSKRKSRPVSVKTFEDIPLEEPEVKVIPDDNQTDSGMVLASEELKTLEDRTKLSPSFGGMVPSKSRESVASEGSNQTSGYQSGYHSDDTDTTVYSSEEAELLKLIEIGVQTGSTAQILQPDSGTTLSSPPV
# conditionContext: at 1 µM
Response key: 1 means inhibition >= 10%; -1 means inhibition < 10%.

- chemicalString: "[O-][S+]1CCN(Cc2ccc(-c3ccc4ncnc(Nc5ccc(OCc6cccc(F)c6)c(Cl)c5)c4c3)o2)CC1"
  qualitativeLabel: -1
- chemicalString: "O=S(=O)(CCNCc1ccc(-c2ccc3ncnc(Nc4ccc(OCc5cccc(F)c5)c(Cl)c4)c3c2)o1)c1ccccc1"
  qualitativeLabel: -1
- chemicalString: "Clc1ccc(-c2nn3ncccc3c2-c2ccnc(Nc3ccccc3)n2)cc1"
  qualitativeLabel: 1
- chemicalString: "CC(=O)Nc1cccc(C#Cc2cncnc2Nc2ccc(OCc3cccc(F)c3)c(Cl)c2)c1"
  qualitativeLabel: 1
- chemicalString: "Fc1ccc(-c2cc(-c3c[nH]nc3-c3ccccn3)ccn2)cc1"
  qualitativeLabel: 1
- chemicalString: "COc1ccc(-c2nn3ncccc3c2-c2ccnc(Nc3ccc4c(c3)OCCO4)n2)cc1"
  qualitativeLabel: 1
- chemicalString: "Fc1ccc(-c2nn3ccccc3c2-c2ccncc2)cc1"
  qualitativeLabel: -1
- chemicalString: "Fc1cccc(COc2ccc(Nc3ncnc4sc(-c5ccco5)cc34)cc2Cl)c1"
  qualitativeLabel: 1
- chemicalString: "COc1cc2c(cc1Nc1nc(Nc3ccsc3C(N)=O)c3cc[nH]c3n1)N(C(=O)CN(C)C)CCC2(C)C"
  qualitativeLabel: 1

====

# subjectOfTest: Mitogen-activated protein kinase kinase kinase kinase 4 (Homo sapiens) (UniProt O95819)
# Sequence (O95819 2-1239 limits assumed): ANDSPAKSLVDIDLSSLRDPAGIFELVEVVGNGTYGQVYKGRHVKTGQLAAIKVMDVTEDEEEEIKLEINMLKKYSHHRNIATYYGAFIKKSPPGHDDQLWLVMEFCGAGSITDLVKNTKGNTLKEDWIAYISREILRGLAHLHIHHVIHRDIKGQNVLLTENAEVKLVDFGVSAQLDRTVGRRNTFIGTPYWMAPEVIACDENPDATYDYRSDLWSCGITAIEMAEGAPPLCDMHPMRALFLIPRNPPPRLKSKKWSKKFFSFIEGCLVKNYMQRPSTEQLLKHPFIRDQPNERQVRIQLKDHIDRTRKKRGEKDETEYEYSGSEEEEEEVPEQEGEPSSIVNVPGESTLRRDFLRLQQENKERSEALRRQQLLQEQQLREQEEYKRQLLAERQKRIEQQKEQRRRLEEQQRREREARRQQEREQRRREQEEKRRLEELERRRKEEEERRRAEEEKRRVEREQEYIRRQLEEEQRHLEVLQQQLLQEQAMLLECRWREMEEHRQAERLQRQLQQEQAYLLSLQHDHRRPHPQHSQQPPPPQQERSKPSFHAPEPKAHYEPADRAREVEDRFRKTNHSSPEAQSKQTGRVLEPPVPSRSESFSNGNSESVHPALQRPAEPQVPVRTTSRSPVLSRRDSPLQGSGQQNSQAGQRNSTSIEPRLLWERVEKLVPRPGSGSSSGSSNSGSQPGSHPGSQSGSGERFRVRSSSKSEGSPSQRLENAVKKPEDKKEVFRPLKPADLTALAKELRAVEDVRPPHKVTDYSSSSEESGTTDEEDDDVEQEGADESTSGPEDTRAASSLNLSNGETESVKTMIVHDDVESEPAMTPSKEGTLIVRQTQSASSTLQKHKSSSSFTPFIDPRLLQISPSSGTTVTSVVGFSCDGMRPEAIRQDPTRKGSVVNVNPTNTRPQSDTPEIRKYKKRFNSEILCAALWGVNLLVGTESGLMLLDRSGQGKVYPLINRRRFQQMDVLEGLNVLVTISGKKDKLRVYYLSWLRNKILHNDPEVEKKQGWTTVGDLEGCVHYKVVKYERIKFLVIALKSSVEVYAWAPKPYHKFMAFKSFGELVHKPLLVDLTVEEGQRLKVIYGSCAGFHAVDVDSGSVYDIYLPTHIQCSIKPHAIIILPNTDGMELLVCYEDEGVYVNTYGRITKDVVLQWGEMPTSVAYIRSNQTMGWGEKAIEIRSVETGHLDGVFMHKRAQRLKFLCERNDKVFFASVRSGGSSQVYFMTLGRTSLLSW
# conditionContext: at 1 µM

- compound: "COC(=O)Nc1nc2ccc(S(=O)(=O)c3ccc(NC(=O)Nc4cc(C(F)(F)F)ccc4F)cc3)cc2[nH]1"
  unitSymbol: "%"
  inhibition: 6.09
- compound: "CCn1c(-c2nonc2N)nc2c(C#CC(C)(C)O)ncc(OC3CCNCC3)c21"
  unitSymbol: "%"
  inhibition: 6.21
- compound: "Fc1ccc(-c2nn3ncccc3c2-c2ccnc(Nc3ccc4c(c3)OCCO4)n2)cc1"
  unitSymbol: "%"
  inhibition: 73.2
- compound: "COc1cc2c(cc1Nc1nc(Nc3ccsc3C(N)=O)c3cc[nH]c3n1)N(C(=O)CN(C)C)CCC2(C)C"
  unitSymbol: "%"
  inhibition: 14.8
- compound: "CCOc1ccc2c(-c3ccnc(Nc4cccc(C(F)(F)F)c4)n3)cnn2n1"
  unitSymbol: "%"
  inhibition: 4.83
- compound: "CC(C)COC(=O)c1ccc2c(c1)/C(=C/Nc1ccc(S(N)(=O)=O)cc1)C(=O)N2"
  unitSymbol: "%"
  inhibition: 65.3
- compound: "CCn1c(-c2nonc2N)nc2c(C#CC(C)(C)O)nc(OC[C@H](N)c3ccccc3)cc21"
  unitSymbol: "%"
  inhibition: 35.1
- compound: "CCCN(CCS(C)(=O)=O)Cc1ccc(-c2ccc3ncnc(Nc4ccc(OCc5cccc(F)c5)c(Cl)c4)c3c2)o1"
  unitSymbol: "%"
  inhibition: 11.1
- compound: "Cc1ccc2c(-c3ccnc(Nc4ccccc4)n3)c(-c3ccc(F)cc3)nn2n1"
  unitSymbol: "%"
  inhibition: 62.1
- compound: "CCn1c(-c2nonc2N)nc2cnc(Oc3cccc(NC(=O)c4ccc(N(C)C)cc4)c3)cc21"
  unitSymbol: "%"
  inhibition: 29.4
- compound: "CS(=O)(=O)CCNCc1ccc(-c2ccc3ncnc(Nc4ccc(OCc5ccccc5)c(C(F)(F)F)c4)c3c2)o1"
  unitSymbol: "%"
  inhibition: 4.73
- compound: "COc1cc(/C=N/Nc2ncnc3[nH]ncc23)ccc1O"
  unitSymbol: "%"
  inhibition: 38.5
- compound: "COc1cc2ncn(-c3cc(OCc4ccccc4C(F)(F)F)c(C(=O)N(C)C)s3)c2cc1OC"
  unitSymbol: "%"
  inhibition: 2.4
- compound: "CN1CCC(n2cnc(-c3ccc(F)cc3)c2-c2ccnc(N)n2)CC1"
  unitSymbol: "%"
  inhibition: 12
- compound: "COc1ccc(-c2nn3ncccc3c2-c2ccnc(Nc3ccc4c(c3)OCCO4)n2)cc1"
  unitSymbol: "%"
  inhibition: 9.82
- compound: "CCn1c(-c2nonc2N)nc2ccccc21"
  unitSymbol: "%"
  inhibition: 22.5
- compound: "Nc1nc(-c2ccc(F)cc2)c(-c2ccc3ncccc3n2)s1"
  unitSymbol: "%"
  inhibition: 61.8
- compound: "CCn1cc(-c2ccnc3[nH]ccc23)c(-c2cccc(NC(=O)Nc3ccc(OCc4ccccc4)cc3)c2)n1"
  unitSymbol: "%"
  inhibition: 27.8
- compound: "COc1ccc(-c2oc3ncnc(N)c3c2-c2ccc(NC(=O)Nc3cc(C(F)(F)F)ccc3F)cc2)cc1"
  unitSymbol: "%"
  inhibition: 10.1
- compound: "Cc1cccc2c1NC(=O)/C2=N\\Nc1ccc(S(N)(=O)=O)cc1"
  unitSymbol: "%"
  inhibition: 48.9
- compound: "CCN(CC)S(=O)(=O)c1ccc(OC)c(Nc2ncc(-c3ccccc3)o2)c1"
  unitSymbol: "%"
  inhibition: 7.43
- compound: "COc1ccc(-c2cc(-c3c[nH]nc3-c3ccccn3)ccn2)cc1"
  unitSymbol: "%"
  inhibition: 80.3
- compound: "Cc1cccc(Nc2ncc(-c3ccccc3)o2)c1"
  unitSymbol: "%"
  inhibition: 14.1
- compound: "c1ccc(-c2nc3n(c2-c2ccc4c(c2)OCO4)CCC3)nc1"
  unitSymbol: "%"
  inhibition: 6.59
- compound: "N#Cc1c(NC(=O)CN2CCOCC2)sc2c1CCCC2"
  unitSymbol: "%"
  inhibition: 8.62
- compound: "FC(F)(F)c1cccc(-c2nn3ncccc3c2-c2ccnc(Nc3ccc4c(c3)OCCO4)n2)c1"
  unitSymbol: "%"
  inhibition: 58.1
- compound: "Nc1nc(-c2cccc(Cl)c2)c(-c2ccc3ncccc3n2)s1"
  unitSymbol: "%"
  inhibition: 60.1
- compound: "CNC(=O)c1cccc(C#Cc2cncnc2Nc2ccc(OCc3cccc(F)c3)c(Cl)c2)c1"
  unitSymbol: "%"
  inhibition: 5.4
- compound: "Fc1ccc(-c2cc(-c3c[nH]nc3-c3ccccn3)ccn2)cc1"
  unitSymbol: "%"
  inhibition: 59.6
- compound: "CCc1nn2ncccc2c1-c1ccnc(NC2CC2)n1"
  unitSymbol: "%"
  inhibition: 5.59
- compound: "CS(=O)(=O)CCNCc1coc(-c2ccc3ncnc(Nc4ccc(OCc5ccccc5)cc4)c3c2)c1"
  unitSymbol: "%"
  inhibition: 7.26
- compound: "O=S(=O)(CCNCc1ccc(-c2ccc3ncnc(Nc4ccc(OCc5cccc(F)c5)c(Cl)c4)c3c2)o1)c1ccccc1"
  unitSymbol: "%"
  inhibition: 10.8
- compound: "N#Cc1c(NC(=O)c2ccc(F)cc2)sc2c1CCCC2"
  unitSymbol: "%"
  inhibition: 5.3
- compound: "COc1cc(N2CCN(C(C)C)CC2)ccc1Nc1nc(Nc2ccc(F)cc2C(N)=O)c2cc[nH]c2n1"
  unitSymbol: "%"
  inhibition: 68.1
- compound: "CC1=C(C(=O)Nc2cc(Cl)c3[nH]ncc3c2)C(c2ccc(C(F)(F)F)cc2)CC(=O)N1 (stereo not given)"
  unitSymbol: "%"
  inhibition: 10.2
- compound: "Clc1ccc(-c2nn3ncccc3c2-c2ccnc(Nc3ccccc3)n2)cc1"
  unitSymbol: "%"
  inhibition: 39.9
- compound: "CN1CCC(n2cnc(-c3ccc(F)cc3)c2-c2ccnc(Nc3ccccc3)n2)CC1"
  unitSymbol: "%"
  inhibition: 41.2
- compound: "Fc1ccc(-c2nn3ccccc3c2-c2ccncc2)cc1"
  unitSymbol: "%"
  inhibition: 38.3
- compound: "Cc1ccc(O)cc1Nc1ccnc2cc(-c3ccccn3)ccc12"
  unitSymbol: "%"
  inhibition: 75.5
- compound: "COC(=O)Nc1nc2ccc(Oc3ccc(NC(=O)Nc4cccc(Cl)c4)cc3)cc2[nH]1"
  unitSymbol: "%"
  inhibition: 3.87
